- Procedure text: NCI Yeast Anticancer Drug Screen. Data for the cln2 rad14 strain (AID 165);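 also: 0% = growth equal to vehicle treated cultures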
- Condition details: S. cerevisiae cln2 rad14 strain, at 50.0 µM (retest, dose inferred, filed as 5.0), hits give high values
The panel holds about 79,000 compounds, 15% with a hit somewhere; the sample as a whole holds those more often. Activity calls are given as the source filed them. Rule as the data show it: active = growth inhibition above about 70%; inactive = the rest.
The reader will find reported growth inhibition values listed item by item below.

Some compounds with recorded growth inhibition:
Can you look up the measured growth inhibition of CCCCc1nnc(NS(=O)(=O)c2ccc(C)cc2)s1 for me?
56% (inactive)

Suppose we examine the compound CCOc1c(N=Nc2ccccc2OC)c(C)nn1C(=S)S ; what growth inhibition value has been reported?
4% (inactive)

What does the record list as growth inhibition for Oc1ccc(O)c(Cc2ccccc2)c1 ?
47% (inactive)

Further cases:
For CN(CCN(C)Cc1ccccc1)Cc1ccccc1 , what is its reported growth inhibition?
38% (inactive)

What measured growth inhibition goes with Cc1cc2cc3cc(C)c(N)cc3nc2cc1N ?
98% (active)

Record request: growth inhibition value, item CCOC(=O)C#Cc1ccc([N+](=O)[O-])cc1
-7% (inactive)

Would you mind telling me what growth inhibition value was observed for O=C(NCCCl)Sc1ccc(Cl)cc1 ?
8% (inactive)

# query: growth inhibition of entry CCCCCCSc1ncnc2[nH]ncc12
6% (inactive)

Quick one: growth inhibition of COc1ccc(C2C3=C(COC3=O)OC(C)(C)Oc3cc4c(cc32)OCO4)cc1OC (centres undefined) ?
57% (inactive)

====

- Procedure text: NCI Yeast Anticancer Drug Screen. Data for the wt2 strain (AID 169);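 also: 0% = growth of vehicle-treated yeast cultures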
- Condition details: S. cerevisiae wt2 strain growth inhibition; at 100.0 µM; hits give high values
Compounds without any hit were thinned out: in the full panel of roughly 79,000, 15% have a hit. The source made the active and inactive calls. Rule as the data show it: active = growth inhibition above about 70%; inactive = the rest.
Property label: growth inhibition

// worked examples, growth inhibition included
Returns the measured growth inhibition for the input molecule. Input: Cc1ccc(NC(=O)/C(CC2N=c3c(ccc4c(O)c5ccccc5c(O)c34)=NC2O)=N/NC(C)(C)C)cc1 (stereo not drawn)
7% (inactive)

Form field: reported growth inhibition of Cc1ccc(NCCNCCO)c2c(=O)c3cc(O)ccc3sc12
24% (inactive)

Any idea what its growth inhibition is? The molecule is O=C(CC(=O)n1nc(-c2ccccc2)c(N=Nc2ccc(Cl)cc2)c1-c1ccccc1)Nc1cccc(Cl)c1
-5% (inactive)

Entry under review: COC1CCC(O)C(/C=C/[N+](=O)[O-])C1 (stereo not drawn) . Reported growth inhibition?
99% (active)

Entry O=C(COC(=O)c1ccccc1)c1ccc(Br)cc1 has what growth inhibition?
99% (active)

Form field: reported growth inhibition of C#CCN(Cc1ccc2nc(N)[nH]c(=O)c2c1)c1ccc(C(=O)NC(CCC(=O)O)C(=O)O)cc1 (stereo not drawn)
28% (inactive)

Which measured growth inhibition value corresponds to CCOC(=O)C1=C(C)NC(C)=C(C(=O)OCCNC(=O)c2ccc(N=[N+]=[N-])cc2)C1c1ccccc1C(F)(F)F (stereo not drawn) ?
19% (inactive)

I'd like to know its growth inhibition. The molecule in question is C/C=C/SC(=Nc1ccccc1)Nc1ccccc1
98% (active)

I would be grateful if you could share the reported growth inhibition for CC[n+]1oc(C(=O)c2ccc(Cl)cc2)c(-c2ccccc2)c1-c1ccccc1.[Cl][Fe]([Cl])([Cl])[Cl] .
59% (inactive)

What measured growth inhibition goes with CC(C)(C)c1ccc(NS(=O)(=O)c2ccc(N)cc2)cc1 ?
41% (inactive)

---
Can you share its growth inhibition? I mean this molecule: S=c1[nH]c2cc3ccccc3cc2[nH]1
-3% (inactive)

Which measured growth inhibition value corresponds to CC(C)/C(Cl)=N\OC(=O)Nc1ccc(F)cc1F ?
63% (inactive)

Fill blank: measured growth inhibition of the molecule CCc1nc2ccc(NCCN(C)C)c3c(=O)c4ccccc4n1c23 is ____.
5% (inactive)

So what does the record say about growth inhibition for CCOC(=O)[C@H]1Nc2ccc(OC)cc2C2c3ccccc3CC21 (stereo partly drawn) ?
85% (active)

So what's the measured growth inhibition for this one? Cc1cc(S(=O)(=O)Nc2nnc3cnc4ccccc4n23)c(S)cc1Cl
35% (inactive)

// growth inhibition lookup, key: CCCC/C=C/C(C)(C(=O)OCC)C(=O)OCC
14% (inactive)

Need growth inhibition of COc1cc([C@@H]2c3cc4c(cc3[C@@H](Nc3ccc(NC(=O)c5cc([N+](=O)[O-])cn5C)cc3)[C@H]3COC(=O)[C@H]23)OCO4)cc(OC)c1O , thanks.
17% (inactive)

Please look up its growth inhibition: CCc1cc(O)c(Cl)c(C)c1Cl
90% (active)

If you can, please state the reported growth inhibition value of O=c1c2ccccc2nc(-c2ccccc2)n1O .
98% (active)

What value of growth inhibition has been reported for the following molecule? CC(=O)Nc1ccc2c(c1)-c1ccccc1C2=O
62% (inactive)

====

- Procedure text: NCI Yeast Anticancer Drug Screen. Data for the wt1 strain (AID 149);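 also: 0% = growth of vehicle-treated wt1 cultures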
- Condition details: S. cerevisiae wt1 strain (SPY 50644) growth inhibition; at 3.7 µM; hits give high values
The panel holds about 79,000 compounds, 15% with a hit somewhere; the sample as a whole holds those more often.
Property label: growth inhibition (%)
Note: unit % is implicit; provide only the numeric part.

These recorded examples may help you get a feel for the data.
I have this molecule here, COc1cc2ccnc(-c3c4ccccc4c(N)c4c(OC)c(OC)ccc34)c2cc1OC , and I need its recorded growth inhibition.
-5

Quick one: growth inhibition of O=C(O)c1cc2ccc(Cl)cc2c(O)c1C1=CCCCC1 ?
2

Next molecule, please.
Dear colleague, I am looking for the recorded growth inhibition of the following molecule: NC(=S)NC(=S)Nc1ccccc1
-5

====

- Procedure text: NCI Yeast Anticancer Drug Screen. Data for the bub3 strain (AID 167)
- Condition details: S. cerevisiae bub3 mutant strain, at 50.0 µM (retest, dose inferred, filed as 5.0), hits give high values
Compounds without any hit were thinned out: in the full panel of roughly 79,000, 15% have a hit.
Entries and their growth inhibition
State just the number; it will be interpreted in %.

Before answering, review these 3 worked examples.
Entry Oc1ccc(-c2nc(-c3ccc(F)cc3)c(-c3ccc4ccccc4n3)[nH]2)cc1 : reported growth inhibition = ?
-31

Query: growth inhibition; subject: O=C1c2cccnc2C(=O)C2C3C=CC(C3)C12 (centres undefined)
98

Recorded growth inhibition of O=C(CSC(=S)N1CCCCC1)Nc1nc2c(s1)CCCC2 , please.
92

Shift focus to the following entry.
Look up growth inhibition for this molecule: CCOC(=O)c1[nH]n(-c2ccccc2)c(=O)c1C=NC(=S)C(N)=S
92

====

- Procedure text: NCI Yeast Anticancer Drug Screen. Data for the rad52 strain (AID 147);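 also: 0% = growth of vehicle-treated control cultures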
- Condition details: S. cerevisiae rad52 mutant growth inhibition; at 100.0 µM
The panel holds about 79,000 compounds, 15% with a hit somewhere; the sample as a whole holds those more often. Activity calls are given as the source filed them. Rule as the data show it: active = growth inhibition above about 70%; inactive = the rest.
Return exactly one item of active, inactive

What did this assay record as the result for CCc1c(Cl)c(C)cc(O)c1Cl ?
active

Outcome logged for COc1ccc(C(=O)Oc2ccccc2Br)cc1 in this assay:
inactive

Tell me the recorded outcome of this test for O=C(O)Cc1cc(F)ccc1C(=O)O .
inactive

Record request — test call for CCCCCCCCCCCCCCCCCC(=O)NCCCN(C)C
active

Record request — test call for O=[N+]([O-])c1cc(S(=O)(=O)Nc2ccccc2)ccc1Nc1ccccc1
active

====

- Procedure text: NCI Yeast Anticancer Drug Screen. Data for the cln2 rad14 strain (AID 165);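 also: 0% = growth equal to vehicle treated cultures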
- Condition details: S. cerevisiae cln2 rad14 strain, at 50.0 µM (retest, dose inferred, filed as 5.0), hits give high values
This is part of a sample that, as a whole, favours compounds with a hit. Of some 79,000 tested, about 15% had one in any assay.
Property label: growth inhibition (%)
API: value field is a number in %; no unit string.

Field request: growth inhibition | item: COC(=O)CCC(NC(=S)N/N=C(\C)c1ccccn1)C(=O)OC (stereo not given)
82

Now consider a different compound.
// query growth inhibition value for entry Cc1cc(C(C)(C)C)c(OCCCN2CCOCC2)c(C(C)(C)C)c1
-81

====

- Procedure text: NCI Yeast Anticancer Drug Screen. Data for the sgs1 strain (AID 173);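 also: 0% = growth of vehicle-only control cultures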
- Condition details: S. cerevisiae sgs1 mutant, at 11.0 µM, hits give high values
The panel holds about 79,000 compounds, 15% with a hit somewhere; the sample as a whole holds those more often.
Property label: growth inhibition (%)
Kindly provide the numeric value in % only, without the unit symbol.

Name the reported growth inhibition value associated with the molecule COc1cc(O)c(O)c(C(C)(C)C)c1
16

What measured growth inhibition goes with O=C1N=C2SC=C(NC(=S)Nc3ccccc3)N2NC12c1ccccc1-c1ccccc12 ?
28

Reported growth inhibition for c1ccc(-c2cnc3ccccc3c2)cc1 : what is it?
-11

Quick one: growth inhibition of OCc1ccccc1Cc1ccccc1 ?
2

Please look at the following molecule next.
Fill in: growth inhibition of Cn1c(=O)c2c(nc(N)n2C2OC(CO)C(O)C2O)n(C)c1=O (stereo not given) is ___
-1

FYI, the data here is from PubChem BioAssay (NCI).
